System: glycogen synthase kinase-3 (GSK3A per assay name; protocol says GSK3B)
Test: compounds binding glycogen synthase kinase-3 – biochemical, small-molecule microarray, 635 nm fluorescence, GSK3A, primary screen (AID 1103); note: the record names both GSK3A and GSK3B
Conditions: fluorescence 635 nm, higher = more signal
quantity: composite z-score

[in] Item C=CCC(OC(C)=O)[C@@H]1[C@@H](N(Cc2ccc(-c3cccc(C(F)(F)F)c3)o2)C(=O)Cc2ccc(OC)cc2)c2cc(OCCCO)ccc2N1C(=O)Cc1ccc(OC)cc1 (some centres not stated) has what recorded composite z-score?
[out] -1.7

[in] Item CCCC[C@@H]1C[C@H]1[C@@H](NC(=O)c1ccccc1)c1ccc(-c2ccccc2)cc1 has what recorded composite z-score?
[out] -0.372

[in] Item Cc1ccc(S[C@]2(C(=O)NCCN3CCOCC3)CC(=O)N(C3CCCCC3)[C@@H]2c2ccc(CO)cc2)cc1 has what recorded composite z-score?
[out] 0.606

[in] Item CCN(CC)c1ccc(N2CC=CC34O[C@@H]5/C=C\CCCOC(=O)C5[C@H]3C(=O)N(CCCO)[C@@H]4C2=O)cc1 (some centres not stated) has what recorded composite z-score?
[out] -0.422

[in] Item CCOC(=O)C1=C[C@@H](C(C)(C)C)N(S(=O)(=O)c2ccc(C)cc2)[C@H]1c1ccc(Cl)c(Cl)c1 has what recorded composite z-score?
[out] 1.3

[in] Item O=C1O[C@H](c2ccccc2)[C@H](c2ccccc2)N2[C@H]1[C@@H](C(=O)NC[C@H](O)c1ccccc1)[C@]1(C(=O)Nc3ccc(C#CC4(O)CCCCCC4)cc31)[C@H]2c1ccccc1OCCO has what recorded composite z-score?
[out] 1.16

[in] Item CC(C)N1C(=O)c2ccccc2[C@](C)(C(=O)NC2CC2)[C@@H]1c1ccc(CO)cc1 has what recorded composite z-score?
[out] 0.821
